# assayExplanation: Metabolic stability in human liver microsomes incubated for 60 mins
# Assay type: ADME, Microsome
# testSettings: read-out: Stability
attributeMeasured: remaining at 1 h (%)

- N#CCC(=O)N1CCC12CCCN(c1ncnc3[nH]ccc13)C2 (single isomer, unassigned): 93.4
- N#CCC(=O)N1CCCC12CCCN(c1ncnc3[nH]ccc13)C2 (single isomer, unassigned): 75.7
- CC1CN(C(=O)CC#N)C12CCCN(c1ncnc3[nH]ccc13)C2 (centres undefined): 73.4
- C[C@H]1CN(C(=O)CC#N)[C@]12CCN(c1ncnc3[nH]ccc13)C2 [DELGOCITINIB]: 97.4
